Test system: RB1
Assay: 3' UTR reporter interaction score (median-centred robust z-score of log2 firefly/Renilla activity); higher = less repression of the 3' UTR reporter
Details: HEK293T; 48 h

| sequenceString | 3' UTR reporter interaction score |
| --- | --- |
| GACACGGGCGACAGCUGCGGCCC | 1.37 |
| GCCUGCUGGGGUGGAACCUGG | 1.37 |
| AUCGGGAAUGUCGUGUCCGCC | -0.355 |
| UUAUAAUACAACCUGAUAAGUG | 1.94 |
| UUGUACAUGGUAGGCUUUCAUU | 0.635 |
| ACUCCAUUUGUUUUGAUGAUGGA | -0.0878 |
| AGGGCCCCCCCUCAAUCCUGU | 1.06 |
| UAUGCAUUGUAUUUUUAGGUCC | 0.308 |
| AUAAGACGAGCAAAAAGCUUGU | -1.39 |
| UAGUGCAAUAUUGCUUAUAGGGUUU | 1.16 |
| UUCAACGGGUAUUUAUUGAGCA | 0.475 |
| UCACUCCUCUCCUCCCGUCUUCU | 0.27 |
| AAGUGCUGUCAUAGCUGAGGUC | 1.65 |
| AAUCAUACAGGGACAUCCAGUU | -0.451 |
| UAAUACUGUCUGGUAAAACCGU | 0.612 |

* * *

Test system: BRCA2
Experiment: 3' UTR reporter interaction score (median-centred robust z-score of log2 firefly/Renilla activity); higher = less repression of the 3' UTR reporter
Details: HEK293T; 48 h
# 3' UTR reporter interaction score listing for each entry below
measuredAttribute: 3' UTR reporter interaction score

| sequenceString | measuredAttribute | endpointResult |
| --- | --- | --- |
| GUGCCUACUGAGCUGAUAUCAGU | 3' UTR reporter interaction score | 0.244 |
| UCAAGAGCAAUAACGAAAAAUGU | 3' UTR reporter interaction score | 0.701 |
| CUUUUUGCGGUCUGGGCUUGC | 3' UTR reporter interaction score | -0.285 |
| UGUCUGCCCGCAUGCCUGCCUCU | 3' UTR reporter interaction score | 0.911 |
| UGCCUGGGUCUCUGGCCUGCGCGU | 3' UTR reporter interaction score | -0.375 |
| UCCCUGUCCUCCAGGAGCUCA | 3' UTR reporter interaction score | -0.604 |
| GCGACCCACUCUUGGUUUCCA | 3' UTR reporter interaction score | -0.537 |
| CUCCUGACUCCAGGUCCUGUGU | 3' UTR reporter interaction score | 0.612 |
| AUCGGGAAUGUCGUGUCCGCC | 3' UTR reporter interaction score | 0.225 |
| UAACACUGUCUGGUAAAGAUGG | 3' UTR reporter interaction score | -0.392 |
| AGGCUGCGGAAUUCAGGAC | 3' UTR reporter interaction score | -1.7 |
| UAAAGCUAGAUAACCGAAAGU | 3' UTR reporter interaction score | 1.05 |
| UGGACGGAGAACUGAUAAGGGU | 3' UTR reporter interaction score | 0.362 |
| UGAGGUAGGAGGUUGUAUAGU | 3' UTR reporter interaction score | 0.75 |
| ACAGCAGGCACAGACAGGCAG | 3' UTR reporter interaction score | -0.408 |
| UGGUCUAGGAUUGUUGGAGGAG | 3' UTR reporter interaction score | 0.659 |
| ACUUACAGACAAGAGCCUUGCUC | 3' UTR reporter interaction score | 0.948 |
| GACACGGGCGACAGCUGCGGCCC | 3' UTR reporter interaction score | -0.257 |
| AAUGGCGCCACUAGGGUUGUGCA | 3' UTR reporter interaction score | -0.437 |
| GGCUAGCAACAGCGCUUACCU | 3' UTR reporter interaction score | -0.392 |
| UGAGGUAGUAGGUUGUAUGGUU | 3' UTR reporter interaction score | 0.199 |
| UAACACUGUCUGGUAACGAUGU | 3' UTR reporter interaction score | 0.575 |
| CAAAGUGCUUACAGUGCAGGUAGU | 3' UTR reporter interaction score | -0.125 |
| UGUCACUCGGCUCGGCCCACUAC | 3' UTR reporter interaction score | 1.08 |
| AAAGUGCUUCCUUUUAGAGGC | 3' UTR reporter interaction score | -0.921 |
| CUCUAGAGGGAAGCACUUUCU | 3' UTR reporter interaction score | -0.166 |
| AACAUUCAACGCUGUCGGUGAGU | 3' UTR reporter interaction score | 0.243 |
| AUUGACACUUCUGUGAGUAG | 3' UTR reporter interaction score | 0.358 |
| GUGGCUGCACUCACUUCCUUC | 3' UTR reporter interaction score | -1.87 |
| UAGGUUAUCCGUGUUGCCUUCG | 3' UTR reporter interaction score | -0.557 |
| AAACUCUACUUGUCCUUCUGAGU | 3' UTR reporter interaction score | 1.32 |
| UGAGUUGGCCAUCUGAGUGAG | 3' UTR reporter interaction score | -0.135 |
| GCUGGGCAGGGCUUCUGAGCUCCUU | 3' UTR reporter interaction score | -0.0026 |
| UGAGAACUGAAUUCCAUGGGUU | 3' UTR reporter interaction score | -1.66 |
| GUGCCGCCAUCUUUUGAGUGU | 3' UTR reporter interaction score | -0.313 |
| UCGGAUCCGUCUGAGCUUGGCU | 3' UTR reporter interaction score | 1.24 |
| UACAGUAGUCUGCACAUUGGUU | 3' UTR reporter interaction score | 0.551 |
| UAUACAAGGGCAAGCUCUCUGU | 3' UTR reporter interaction score | -0.0857 |
| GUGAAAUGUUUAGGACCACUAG | 3' UTR reporter interaction score | -0.28 |
| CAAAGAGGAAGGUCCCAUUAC | 3' UTR reporter interaction score | -0.346 |
| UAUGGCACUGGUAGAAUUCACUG | 3' UTR reporter interaction score | 0.00324 |
| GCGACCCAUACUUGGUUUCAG | 3' UTR reporter interaction score | 0.00941 |
| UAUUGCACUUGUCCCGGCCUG | 3' UTR reporter interaction score | 1.75 |
| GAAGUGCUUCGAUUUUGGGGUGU | 3' UTR reporter interaction score | 0.244 |
| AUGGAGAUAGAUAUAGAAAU | 3' UTR reporter interaction score | -0.571 |
| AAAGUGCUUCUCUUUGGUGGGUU | 3' UTR reporter interaction score | 0.0116 |
| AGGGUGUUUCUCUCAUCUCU | 3' UTR reporter interaction score | -0.403 |
| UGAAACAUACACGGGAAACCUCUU | 3' UTR reporter interaction score | 0.436 |
| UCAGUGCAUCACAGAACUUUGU | 3' UTR reporter interaction score | -1.11 |
| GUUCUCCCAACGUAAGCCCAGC | 3' UTR reporter interaction score | -0.8 |
| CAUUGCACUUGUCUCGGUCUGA | 3' UTR reporter interaction score | 0.658 |
| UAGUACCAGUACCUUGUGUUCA | 3' UTR reporter interaction score | -0.45 |
| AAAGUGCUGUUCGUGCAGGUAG | 3' UTR reporter interaction score | -0.619 |
